tested_on: FAAH (Rattus norvegicus)
Sequence (P97612 whole entry): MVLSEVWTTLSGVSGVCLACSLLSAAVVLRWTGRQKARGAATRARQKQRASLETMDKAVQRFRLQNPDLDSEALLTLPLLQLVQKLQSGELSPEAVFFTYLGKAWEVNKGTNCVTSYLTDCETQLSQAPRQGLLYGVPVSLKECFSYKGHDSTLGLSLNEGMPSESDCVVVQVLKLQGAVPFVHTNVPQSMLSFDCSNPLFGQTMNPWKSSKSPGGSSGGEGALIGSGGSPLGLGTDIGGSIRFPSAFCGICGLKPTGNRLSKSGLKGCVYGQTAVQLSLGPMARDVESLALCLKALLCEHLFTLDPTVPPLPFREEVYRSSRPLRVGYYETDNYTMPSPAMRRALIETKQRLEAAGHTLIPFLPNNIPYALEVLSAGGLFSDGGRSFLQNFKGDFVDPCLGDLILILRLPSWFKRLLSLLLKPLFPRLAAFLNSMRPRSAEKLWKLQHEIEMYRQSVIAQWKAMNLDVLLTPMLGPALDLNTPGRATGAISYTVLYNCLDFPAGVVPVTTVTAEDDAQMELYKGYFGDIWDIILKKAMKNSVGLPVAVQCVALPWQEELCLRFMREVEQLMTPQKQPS
test_name: Assay Method 1A: FAAH enzyme assay, 14C-oleamide hydrolysis, solubilized liver plasma membrane extract;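 note: ki obtained by Dixon analysis, taking the x-intercept of inhibitor concentration versus reciprocal rate plots at fixed substrate level and correcting for substrate concentration relative to Km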
pKi: −log10 of the molar value.
value_type: pKi

Below are worked cases with known answers.
[[record]]
molecular_string = "O=C(CCCCCCc1ccccc1)c1ncc(-c2ccccc2[N+](=O)[O-])o1"
result_value = 6.90

[[record]]
molecular_string = "COc1ccnc(-c2cnc(C(=O)CCCCCCc3ccccc3)o2)c1"
result_value = 8.70

[[record]]
molecular_string = "Cc1cccc(-c2cnc(C(=O)CCCCCCc3ccccc3)o2)n1"
result_value = 8.52

[[record]]
molecular_string = "Nc1ccccc1-c1cnc(C(=O)CCCCCCc2ccccc2)o1"
result_value = 6.12

[[record]]
molecular_string = "O=C(CCCCCCc1ccccc1)c1ncc(-c2cccc([N+](=O)[O-])c2)o1"
result_value = 7.55


[a] COC(=O)c1ccc(-c2cnc(C(=O)CCCCCCc3ccccc3)o2)s1
[b] Nc1ccnc(-c2cnc(C(=O)CCCCCCc3ccccc3)o2)c1
In: Given the two records a and b , choose the one whose pKi value is lower. Please respond with the label that marks your chosen entry.
Out: b
